Target: HLA-B*51:01
Test: IEDB peptide-MHC binding, purified MHC/direct/fluorescence; filed as Kd, often an IC50 or EC50 that approximates it; bounds were set here for any values at or beyond the usual limits of such assays
Conditions: source organism: Homo sapiens

CONSTRUCT_SEQUENCE	Kd, nM
YPGFGEHLI	1890

----------
Biological target: HLA-A*11:01
Assay: IEDB peptide-MHC binding, purified MHC/competitive/radioactivity; filed as Kd, often an IC50 or EC50 that approximates it; bounds were set here for any values at or beyond the usual limits of such assays
Settings: source organism: Dengue virus 1 Brazil/97-11/1997
OBSERVED_PROPERTY: Kd (nM)

CONSTRUCT_SEQUENCE	OBSERVED_PROPERTY	OBSERVED_RESULT
VIDPRRCLK	Kd	1500

----------
Molecular target: HLA-A*26:01
Assay: IEDB peptide-MHC binding, purified MHC/competitive/radioactivity; filed as Kd, often an IC50 or EC50 that approximates it; bounds were set here for any values at or beyond the usual limits of such assays
Conditions: source organism: Dengue virus 1 Singapore/S275/1990
pKd: −log10 of the molar value.
OBSERVED_PROPERTY: pKd

CONSTRUCT_SEQUENCE	OBSERVED_RESULT
EISNMLNIM	6.32

----------
Listed next: entries and their corresponding pKd.
Molecular target: HLA-B*27:05
Assay: IEDB peptide-MHC binding, purified MHC/direct/fluorescence; filed as Kd, often an IC50 or EC50 that approximates it; bounds were set here for any values at or beyond the usual limits of such assays
Conditions: source organism: Mycobacterium tuberculosis
pKd: −log10 of the molar value.
OBSERVED_PROPERTY: pKd

CONSTRUCT_SEQUENCE	OBSERVED_PROPERTY	OBSERVED_RESULT
RPAPATGAL	pKd	≤ 4.70
KVMVICYAY	pKd	≤ 4.70
YPACEAIGL	pKd	≤ 4.70

----------
Target: HLA-B*44:03
Experiment: IEDB peptide-MHC binding, purified MHC/competitive/radioactivity; filed as Kd, often an IC50 or EC50 that approximates it; bounds were set here for any values at or beyond the usual limits of such assays
Details: source organism: Mammarenavirus machupoense
Listed next: entries and their corresponding Kd.

CONSTRUCT_SEQUENCE	TEST_SYSTEM	Kd (nM)
DELGNILSTY	HLA-B*44:03	361
EEPVSLLPLS	HLA-B*44:03	1870
EELSLMYEAL	HLA-B*44:03	2000

----------
Listed next: entries and their corresponding Kd.
Target: HLA-A*01:01
Assay: IEDB peptide-MHC binding, purified MHC/direct/fluorescence; filed as Kd, often an IC50 or EC50 that approximates it; bounds were set here for any values at or beyond the usual limits of such assays
Settings: source organism: Vibrio cholerae

CONSTRUCT_SEQUENCE	QUALIFIER_SIGN	Kd [nM]
IHYAGWVSL	≥	20000
YFRNSGMTY	=	1460
IVKQGRDAL	≥	20000
DTDISQLHH	=	358

----------
Target: HLA-A*02:03
Assay: IEDB peptide-MHC binding, purified MHC/competitive/radioactivity; filed as Kd, often an IC50 or EC50 that approximates it; bounds were set here for any values at or beyond the usual limits of such assays
Conditions: source organism: Lymphocytic choriomeningitis virus (strain Armstrong) (clone 53b)
pKd: −log10 of the molar value.

CONSTRUCT_SEQUENCE	TEST_SYSTEM	pKd
ALPHIIDEV	HLA-A*02:03	9.47
